Tgt: Sphingomyelin phosphodiesterase (Homo sapiens) (UniProt P17405)
Sequence (P17405 whole entry): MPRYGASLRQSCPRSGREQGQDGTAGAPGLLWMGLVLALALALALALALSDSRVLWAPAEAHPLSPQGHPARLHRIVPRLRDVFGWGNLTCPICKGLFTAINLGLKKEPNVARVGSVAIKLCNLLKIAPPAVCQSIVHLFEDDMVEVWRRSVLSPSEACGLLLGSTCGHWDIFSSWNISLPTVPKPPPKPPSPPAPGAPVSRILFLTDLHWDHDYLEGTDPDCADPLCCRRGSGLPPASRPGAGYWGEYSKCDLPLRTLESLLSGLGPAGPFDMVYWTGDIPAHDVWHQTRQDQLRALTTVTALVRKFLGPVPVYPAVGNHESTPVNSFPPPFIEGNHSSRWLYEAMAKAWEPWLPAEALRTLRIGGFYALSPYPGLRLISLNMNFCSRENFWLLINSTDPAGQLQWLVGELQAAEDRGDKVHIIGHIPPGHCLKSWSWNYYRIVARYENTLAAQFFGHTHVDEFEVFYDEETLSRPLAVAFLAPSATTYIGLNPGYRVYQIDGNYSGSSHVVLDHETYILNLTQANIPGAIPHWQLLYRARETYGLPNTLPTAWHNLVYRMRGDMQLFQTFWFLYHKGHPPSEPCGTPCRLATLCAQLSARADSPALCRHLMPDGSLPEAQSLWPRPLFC
Method: Inhibition of recombinant human acid sphingomyelinase expressed in HEKfreestyle293 cells using bodipy-C12 sphingomyelin as substrate and nanomolar to low micromolar concentration of compound after 1 hr by fluorescence assay
Activity calls are given as the source filed them. How the calls were made is not given here.
Value Kind: inhibition

Solved cases below.
- Compound: "CCCCCCCCOc1ccc(-c2ccc(C(=O)Nc3cccc(CP(=O)(O)OCC)c3)cc2)cc1"
  Experimental Result: "Active"
- Compound: "CCCCCCCCOc1ccc(-c2ccc(C(=O)Nc3ccccc3C(F)(F)P(=O)(OCC)OCC)cc2)cc1"
  Experimental Result: "Active"
- Compound: "CCCCCCCCOc1ccc(-c2ccc(C(=O)Nc3ccc(P(=O)(O)OCC)cc3)cc2)cc1"
  Experimental Result: "Active"
- Compound: "CCCCCCCCOc1ccc(-c2ccc(C(=O)Nc3cccc(CCP(=O)(O)O)c3)cc2)cc1"
  Experimental Result: "Active"
- Compound: "CCCCCCCCOc1ccc(-c2ccc(C(=O)Nc3cccc(C(F)(F)P(=O)(O)OCC)c3)cc2)cc1"
  Experimental Result: "Active"
- Compound: "CCCCCCCCOc1ccc(-c2ccc(C(=O)Nc3cccc(N4CC(=O)NS4(=O)=O)c3)cc2)cc1"
  Experimental Result: "Active"
- Compound: "CCCCCCCCOc1ccc(-c2ccc(C(=O)N(C)c3ccccc3C(F)(F)P(=O)(OCC)OCC)cc2)cc1"
  Experimental Result: "Active"
- Compound: "CCCCCCCCOc1ccc(-c2ccc(C(=O)Nc3cccc(P(=O)(OCC)OCC)c3)cc2)cc1"
  Experimental Result: "Active"
- Compound: "CCCCCCCCOc1ccc(-c2ccc(C(=O)N(C)c3ccc(C(F)(F)P(=O)(O)O)cc3)cc2)cc1"
  Experimental Result: "Active"
- Compound: "CCCCCCCCOc1ccc(-c2ccc(C(=O)Nc3ccccc3P(=O)(O)OCC)cc2)cc1"
  Experimental Result: "Active"

Provide each entry's inhibition from the list below.
1. CCCCCCCCOc1ccc(-c2ccc(C(=O)Nc3ccc(C(F)(F)P(=O)(O)OCC)cc3)cc2)cc1
2. CCCCCCCCOc1ccc(-c2ccc(C(=O)Nc3ccccc3CCP(=O)(O)O)cc2)cc1
3. CCCCCCCCOc1ccc(-c2ccc(C(=O)Nc3cccc(P(=O)(O)O)c3)cc2)cc1

Solution:
["Active", "Active", "Active"]

Provide each entry's inhibition from the list below.
1. CCCCCCCCOc1ccc(-c2ccc(C(=O)Nc3ccccc3C(F)(F)C(F)(F)P(=O)(O)O)cc2)cc1
2. CCCCCCCCOc1ccc(-c2ccc(C(=O)Nc3ccccc3C(F)(F)P(=O)(O)OCC)cc2)cc1
3. CCCCCCCCOc1ccc(-c2ccc(C(=O)Nc3ccc(CP(=O)(O)O)cc3)cc2)cc1

Solution:
Active
Active
Active

Provide each entry's inhibition from the list below.
1. CCCCCCCCOc1ccc(-c2ccc(C(=O)Nc3cccc(CP(=O)(O)O)c3)cc2)cc1
2. CCCCCCCCOc1ccc(-c2ccc(C(=O)Nc3ccccc3CCP(=O)(OCC)OCC)cc2)cc1
3. CCCCCCCCOc1ccc(-c2ccc(C(=O)N(C)c3cccc(C(F)(F)P(=O)(O)O)c3)cc2)cc1
4. CCCCCCCCOc1ccc(-c2ccc(C(=O)Nc3ccccc3C(F)(F)C(F)(F)P(=O)(OCC)OCC)cc2)cc1
5. CCCCCCCCOc1ccc(-c2ccc(C(=O)N(C)c3cccc(C(F)(F)P(=O)(OC)OCC)c3)cc2)cc1 (stereo not given)
6. CCCCCCCCOc1ccc(-c2ccc(C(=O)Nc3ccccc3P(=O)(OCC)OCC)cc2)cc1
7. CCCCCCCCOc1ccc(-c2ccc(C(=O)Nc3ccc(C(F)(F)P(=O)(OCC)OCC)cc3)cc2)cc1

Solution:
Active
Active
Active
Active
Active
Active
Active

Provide each entry's inhibition from the list below.
1. CCCCCCCCOc1ccc(-c2ccc(C(=O)Nc3cccc(CP(=O)(OCC)OCC)c3)cc2)cc1
2. CCCCCCCCOc1ccc(-c2ccc(C(=O)Nc3ccc(C(F)(F)C(F)(F)P(=O)(OCC)OCC)cc3)cc2)cc1
3. COc1ccc(-c2ccc(C(=O)Nc3ccccc3CP(=O)(O)O)cc2)cc1
4. CCCCCCCCOc1ccc(-c2ccc(C(=O)Nc3ccccc3C(F)(F)P(=O)(OC)OCC)cc2)cc1 (stereo not given)
5. CCCCCCCCOc1ccc(-c2ccc(C(=O)N(CC)c3cccc(C(F)(F)P(=O)(OCC)OCC)c3)cc2)cc1
6. CCCCCCCCOc1ccc(-c2ccc(C(=O)N(C)c3ccccc3C(F)(F)P(=O)(OC)OCC)cc2)cc1 (stereo not given)
7. CCCCCCc1ccc(-c2ccc(C(=O)Nc3ccccc3CP(=O)([O-])OCC[N+](C)(C)C)cc2)cc1
8. CCCCCCCCOc1ccc(-c2ccc(C(=O)Nc3ccc(C(F)(F)CC(F)(F)P(=O)(OCC)OCC)cc3)cc2)cc1

Solution:
1: Active; 2: Active; 3: Active; 4: Active; 5: Active; 6: Active; 7: Active; 8: Active

Provide each entry's inhibition from the list below.
1. CCCCCCCCOc1ccc(-c2ccc(C(=O)N(C)c3ccc(C(F)(F)P(=O)(OC)OCC)cc3)cc2)cc1 (stereo not given)
2. CCCCCCCOc1ccc(-c2ccc(C(=O)Nc3cccc(P(=O)(O)O)c3)cc2)cc1
3. CCCCCCCCOc1ccc(-c2ccc(C(=O)Nc3ccc(P(=O)(O)O)cc3)cc2)cc1
4. CCCCCCCCOc1ccc(-c2ccc(C(=O)Nc3cccc(C(F)(F)C(F)(F)P(=O)(O)O)c3)cc2)cc1

Solution:
Active
Active
Active
Active
